The reported numbers originate from ChEMBL document CHEMBL3885861.

# Species: Rattus norvegicus
# procedure_details: Open TG-GATES - Regimen: Single
# Type: toxicity, organism-based, Sprague-Dawley
# Design: regimen Single, gender Male, age 6 weeks
# particulars: in vivo, po, 0 mg/kg, 6 h, tissue Plasma, route gavage, dose level Control
outcome_measure: TC (mg/dL)

compound=Nc1nc(N)c2nc(-c3ccccc3)c(N)nc2n1 value=77.8
compound="CC(=N)S [THIOACETAMIDE]" value=80.8
compound=C[C@]12CCC(=O)C=C1CC[C@@H]1[C@@H]2CC[C@@]2(C)[C@H]1CC[C@]2(C)O value=79.8
compound=O=C(O)c1cccnc1 value=79.2
compound=CCSCC[C@H](N)C(=O)O value=78
compound=C[C@](N)(Cc1ccc(O)c(O)c1)C(=O)O value=81.2

* * *

# Species on record: Rattus norvegicus
# procedure_details: Open TG-GATES - Regimen: Single
# Assay type: toxicity, organism-based, Sprague-Dawley
# Parameters: regimen Single, gender Male, age 6 weeks
# particulars: in vivo, po, 0 mg/kg, 6 h, tissue Plasma, route gavage, dose level Control
Values of CRE greater than or equal to 0.2 mg/dL map to 1.0; values below map to 0.0.

compound=CC(=O)Oc1cc(C(C)C)c(OCCN(C)C)cc1C class_name=0.0
compound=CCC(C)(C)C(=O)O[C@H]1C[C@@H](C)C=C2C=C[C@H](C)[C@H](CC[C@@H]3C[C@@H](O)CC(=O)O3)[C@H]21 class_name=1.0
compound="CC(C)C(=O)Nc1ccc([N+](=O)[O-])c(C(F)(F)F)c1 [FLUTAMIDE]" class_name=1.0
compound=O=C(O)c1cccnc1 class_name=0.0
compound="CC(=N)S [THIOACETAMIDE]" class_name=1.0
compound=CCc1oc2ccccc2c1C(=O)c1cc(I)c(O)c(I)c1 class_name=1.0
compound=CCSCC[C@H](N)C(=O)O class_name=1.0

* * *

Eos: recorded values
# Organism: Rattus norvegicus
# procedure_details: Open TG-GATES - Regimen: Daily Repeat
# Assay type: toxicity, organism-based, Sprague-Dawley
# Design: regimen Daily Repeat, gender Male, age 6 weeks
# particulars: in vivo, po, 0 mg/kg, […], tissue Blood, route gavage, dose level Control, time 14 day
outcome_measure: Eos (%)

molecule=O=C(O)c1cccnc1 unit=% value=1
molecule=CC(C)(S)[C@@H](N)C(=O)O unit=% value=1.2
molecule=C#C[C@]1(O)CC[C@H]2[C@@H]3CCc4cc(O)ccc4[C@H]3CC[C@@]21C unit=% value=1
molecule=CN1C(=O)OC(C)(C)C1=O unit=% value=1.2
molecule="CC(C)C(=O)Nc1ccc([N+](=O)[O-])c(C(F)(F)F)c1 [FLUTAMIDE]" unit=% value=0.8
molecule="CCN1CCCC1CNC(=O)c1cc(S(N)(=O)=O)ccc1OC (configuration not stated) [SULPIRIDE]" unit=% value=0.8
molecule=CC(=O)Oc1cc(C(C)C)c(OCCN(C)C)cc1C unit=% value=1

* * *

# Species on record: Rattus norvegicus
# procedure_details: Open TG-GATES - Regimen: Daily Repeat
# Assay type: toxicity, organism-based, Sprague-Dawley
# Set-up: regimen Daily Repeat, gender Male, age 6 weeks
# particulars: in vivo, po, 0 mg/kg, 72 h, tissue Plasma, route gavage, dose level Control, time 3 day
outcome_measure: TG (mg/dL)

smiles_structure=Nc1nc(N)c2nc(-c3ccccc3)c(N)nc2n1 value=102.4
smiles_structure=CC(=O)Oc1cc(C(C)C)c(OCCN(C)C)cc1C value=97
smiles_structure=CCSCC[C@H](N)C(=O)O value=99.2
smiles_structure=C#C[C@]1(O)CC[C@H]2[C@@H]3CCc4cc(O)ccc4[C@H]3CC[C@@]21C value=98.2
